MEASURED ON: human apelin receptor (Homo sapiens, UniProt P35414)
Construct: expressed in transfected cells
Sequence (P35414 1-380): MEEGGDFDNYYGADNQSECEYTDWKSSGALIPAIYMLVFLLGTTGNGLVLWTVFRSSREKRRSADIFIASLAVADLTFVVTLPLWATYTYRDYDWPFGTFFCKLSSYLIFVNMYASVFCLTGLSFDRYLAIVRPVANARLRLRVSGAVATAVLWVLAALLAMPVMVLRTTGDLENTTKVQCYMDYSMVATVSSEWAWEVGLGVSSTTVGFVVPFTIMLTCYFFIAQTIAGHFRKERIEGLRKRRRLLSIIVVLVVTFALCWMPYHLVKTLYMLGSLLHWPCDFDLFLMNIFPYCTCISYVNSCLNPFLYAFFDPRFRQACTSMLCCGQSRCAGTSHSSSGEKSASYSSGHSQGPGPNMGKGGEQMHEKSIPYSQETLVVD
ASSAY COMMENT: Determination of agonism on the human apelin receptor by a calcium fluorescence assay (FLIPR)
Assay type: cell-based
MEASUREMENT CONTEXT: HEK293 cells stably transfected with human apelin receptor and Giaq protein, Fluo-4 calcium fluorescence, read-out: EC50 (APJ agonism)
Let's look at some compounds and their measured EC50.
// return numeric value only (unit: nM, not printed)

>>> assay_result("CCC(CC)n1c(Cc2cccs2)nc2cc(C(=O)N[C@@H](CC(C)C)C(=O)N(C)CCCC3CCCO3)ccc21 (stereo partly shown)")
1380
>>> assay_result("CCC(CC)n1c(Cc2cccs2)nc2cc(C(=O)N[C@@H](CC(C)C)C(=O)NCC3CN(CC(C)C)CCO3)ccc21 (stereo partly shown)")
1520
>>> assay_result("CC(C)C[C@H](NC(=O)c1ccc2c(c1)nc(Cc1cccs1)n2C1CCCCC1C(F)(F)F)C(=O)O (stereo partly shown)")
882
>>> assay_result("CCC(CC)n1c(Cc2cccs2)nc2cc(C(=O)N[C@@H](CC(C)C)C(=O)NCCCN3CCC(Cc4ccccc4)CC3)ccc21")
1320

Ask: Which EC50 is reported with human apelin receptor (Homo sapiens, UniProt P35414) for this entry: C[C@@H]1CCCC[C@H]1n1c(Cc2cccs2)nc2cc(C(=O)NC(CC(=O)O)CC3CCCCC3)ccc21 (single isomer, unassigned) [Example 457] ?
Reply: 1460

Ask: Look up EC50 with human apelin receptor (Homo sapiens, UniProt P35414) for this compound: CCC(CC)n1c(Cc2cccs2)nc2cc(C(=O)NC(CC3CCC(C)CC3)C(=O)O)ccc21 (stereo not shown)
Reply: 1260

Ask: Form entry - test system: human apelin receptor (Homo sapiens, UniProt P35414); read-out: EC50; compound: CCC(CC)n1c(Cc2cccs2)nc2cc(C(=O)N[C@@H](CC(C)C)C(=O)NC3CCN(CCc4ccc(OC)cc4)CC3)ccc21
Reply: 1270
